target: SSTR2 (Rattus norvegicus, UniProt P30680); construct: host or cells: AR42J cells; test: Competitive cell-binding assay on AR42J cells with 125I-C1 as competitive ligand
Sequence (P30680 whole entry): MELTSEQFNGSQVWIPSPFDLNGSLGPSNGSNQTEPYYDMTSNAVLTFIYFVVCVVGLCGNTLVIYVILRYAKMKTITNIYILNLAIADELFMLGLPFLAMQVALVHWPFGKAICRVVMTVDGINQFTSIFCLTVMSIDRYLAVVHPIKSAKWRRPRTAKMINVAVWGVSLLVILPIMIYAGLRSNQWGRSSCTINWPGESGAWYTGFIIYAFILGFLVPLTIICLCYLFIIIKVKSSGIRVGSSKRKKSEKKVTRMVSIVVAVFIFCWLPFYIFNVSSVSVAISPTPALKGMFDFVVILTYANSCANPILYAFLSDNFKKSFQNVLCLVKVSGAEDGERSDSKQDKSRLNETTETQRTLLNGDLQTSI
Here, each record is paired with measured Relative Binding Affinity SSTR2 data.
Hey, just send me the number, nothing else.

C[C@@H](O)[C@H](NC(=O)[C@@H]1CSSC[C@H](NC(=O)[C@@H](Cc2ccccc2)NC(=O)[C@H](CCCCNC(=O)COCCOCCNC(=O)COCCOCCNC(=O)COCCOCCNC(=O)c2cccc(NC(=O)N[C@@H]3CN(C4CCCCC4)c4ccccc4N(CC(=O)C(C)(C)C)C3=O)c2)NC(=O)CN2CCN(CC(=O)O)CCN(CC(=O)O)CCN(CC(=O)O)CC2)C(=O)N[C@@H](Cc2ccc(O)cc2)C(=O)N[C@H](Cc2c[nH]c3ccccc23)C(=O)N[C@@H](CCCCN)C(=O)N[C@@H]([C@@H](C)O)C(=O)N1)C(=O)O :: 0.43

We next turn to a different compound, shown below.
Data request: So what's the measured Relative Binding Affinity SSTR2 for this one? C[C@@H](O)[C@H](NC(=O)[C@@H]1CSSC[C@H](NC(=O)[C@@H](Cc2ccccc2)NC(=O)[C@H](CCCCNC(=O)COCCOCCNC(=O)c2cccc(NC(=O)N[C@@H]3CN(C4CCCCC4)c4ccccc4N(CC(=O)C(C)(C)C)C3=O)c2)NC(=O)CN2CCN(CC(=O)O)CCN(CC(=O)O)CCN(CC(=O)O)CC2)C(=O)N[C@@H](Cc2ccc(O)cc2)C(=O)N[C@H](Cc2c[nH]c3ccccc23)C(=O)N[C@@H](CCCCN)C(=O)N[C@@H]([C@@H](C)O)C(=O)N1)C(=O)O [Compound I-36, DOTA-K(-OEG-Z360)-f[CYwKTC]T-OH]
Data returned: 1.76

====

experiment: in vivo; conditions: BALB/c nude, mouse, in vivo, iv, total radioactivity, % ID/g Intestine
Readout Name: tissue uptake at 4 h (%ID/g)
Express it in %ID/g; write the number only.

# example entries with known answers
CC(C)(C)C(=O)CN1C(=O)[C@H](NC(=O)Nc2cccc(C(=O)N[C@@H](CCC(=O)N[C@@H](CCC(=O)N[C@@H](CCC(=O)N[C@@H](CCCCNC(=O)COCCOCCNC(=O)COCCOCCNC(=O)CCC(C(=O)O)N3CCN(CC(=O)O)CCN(CC(=O)O)CCN(CC(=O)O)CC3)C(N)=O)C(=O)O)C(=O)O)C(=O)O)c2)CN(C2CCCCC2)c2ccccc21 (some centres unmarked) [^177Lu-C-4, metal not drawn, reference compound] :: 0.12
C[C@@H](O)[C@H](NC(=O)[C@@H]1CSSC[C@H](NC(=O)[C@@H](Cc2ccccc2)NC(=O)COCCOCCNC(=O)COCCOCCNC(=O)[C@H](CCCCNC(=O)c2cccc(NC(=O)N[C@@H]3CN(C4CCCCC4)c4ccccc4N(CC(=O)C(C)(C)C)C3=O)c2)NC(=O)CN2CCN(CC(=O)O)CCN(CC(=O)O)CCN(CC(=O)O)CC2)C(=O)N[C@@H](Cc2ccc(O)cc2)C(=O)N[C@H](Cc2c[nH]c3ccccc23)C(=O)N[C@@H](CCCCN)C(=O)N[C@@H]([C@@H](C)O)C(=O)N1)C(=O)O [Compound 177Lu-I-39, metal not drawn] :: 1.8
CCCC[C@H](NC(=O)[C@H](Cc1c[nH]c2ccccc12)NC(=O)CNC(=O)[C@H](Cc1ccc(O)cc1)NC(=O)[C@H](C)NC(=O)[C@@H](CCC(=O)O)NC(=O)[C@@H](CCC(=O)O)NC(=O)[C@@H](CCC(=O)O)NC(=O)[C@@H](CCC(=O)O)NC(=O)[C@@H](CCC(=O)O)NC(=O)[C@@H](CCC(=O)O)NC(=O)CN1CCN(CC(=O)O)CCN(CC(=O)O)CCN(CC(=O)O)CC1)C(=O)N[C@@H](CC(=O)O)C(=O)N[C@@H](Cc1ccccc1)C(N)=O [^177Lu-C-2, metal not drawn, reference compound] :: 0.06
C[C@@H](O)[C@H](NC(=O)[C@@H]1CSSC[C@H](NC(=O)[C@@H](Cc2ccccc2)NC(=O)[C@H](CCCCNC(=O)c2cccc(NC(=O)N[C@@H]3CN(C4CCCCC4)c4ccccc4N(CC(=O)C(C)(C)C)C3=O)c2)NC(=O)COCCOCCNC(=O)CN2CCN(CC(=O)O)CCN(CC(=O)O)CCN(CC(=O)O)CC2)C(=O)N[C@@H](Cc2ccc(O)cc2)C(=O)N[C@H](Cc2c[nH]c3ccccc23)C(=O)N[C@@H](CCCCN)C(=O)N[C@@H]([C@@H](C)O)C(=O)N1)C(=O)O [^177Lu-I-35, metal not drawn] :: 2.36

Data request: So what's the measured tissue uptake at 4 h for this one? C[C@@H](O)[C@H](NC(=O)[C@@H]1CSSC[C@H](NC(=O)[C@@H](Cc2ccccc2)NC(=O)CN2CCN(CC(=O)O)CCN(CC(=O)O)CCN(CC(=O)O)CC2)C(=O)N[C@@H](Cc2ccc(O)cc2)C(=O)N[C@H](Cc2c[nH]c3ccccc23)C(=O)N[C@@H](CCCCN)C(=O)N[C@@H]([C@@H](C)O)C(=O)N1)C(=O)O [^177Lu-C-1, metal not drawn, reference compound]
Data returned: 0.2
